Tested on: SW-620 colon
Assay: NCI-60 one-dose screen, 48 h
Settings: 10 µM unless noted
This is part of a sample that, as a whole, favours compounds with a hit. Of some 83,000 tested, about 20% had one in any assay. Activity calls are given as the source filed them. How the source made its calls: active means growth percent below 10; inactive means the rest.
Outcome (select one): active, inactive

// query Assay outcome for Cc1cc(C)nc(NS(=O)(=O)c2ccc(Nc3ccc4c5c(n(CCCN(C)C)c(=O)c4c3)-c3ccccc3C5=O)cc2)n1 : what was it?
// result inactive

// query Assay outcome for N#Cc1c(-c2ccc(F)cc2)c(C#N)c2c(C#N)c(N)nn2c1N : what was it?
// result inactive

// query Assay outcome for Cn1c2ccccc2c2c(OC(=O)c3ccccc3)c3c(nc21)-c1ccccc1C3 : what was it?
// result inactive

// query Assay outcome for CCOC(=O)c1sc(/N=C2\NC(=O)/C(=C/c3ccc(N4CCN(C)CC4)cc3)S2)nc1C : what was it?
// result inactive

// query Assay outcome for COc1cccc(C(=O)OCCn2nc3c4c(cccc42)C(=O)c2ccccc2-3)c1O : what was it?
// result inactive

// query Assay outcome for CC(=O)OC[C@]12CC[C@@H](c3cn(Cc4ccc(Cn5cc([C@@H]6CC[C@]7(COC(C)=O)CC[C@]8(C)[C@H](CC[C@@H]9[C@@]%10(C)CC[C@H](OC(C)=O)C(C)(C)[C@@H]%10CC[C@]98C)[C@@H]67)nn5)cc4)nn3)[C@@H]1[C@H]1CC[C@@H]3[C@@]4(C)CC[C@H](OC(C)=O)C(C)(C)[C@@H]4CC[C@@]3(C)[C@]1(C)CC2 : what was it?
// result inactive

// query Assay outcome for CCOCc1cc(C(C)(C)C)ccc1O : what was it?
// result inactive

// query Assay outcome for C[C@]12CC[C@@H]3c4ccc(O)cc4CC[C@H]3[C@@H]1C[C@H](O)C2 : what was it?
// result inactive

// query Assay outcome for CN1CCN(CC#CCOC(=O)CNC(=O)[C@]23CCC(C)(C)C[C@H]2C2=CC[C@@H]4[C@@]5(C)CC[C@H](O)C(C)(C)[C@@H]5CC[C@@]4(C)[C@]2(C)CC3)CC1 : what was it?
// result inactive

// query Assay outcome for C[C@H](Oc1cc(-c2cnn(C3CCNCC3)c2)cnc1N)c1c(Cl)ccc(F)c1Cl : what was it?
// result inactive

// query Assay outcome for NC(=O)C(O)(c1ccccc1)c1ccccc1 : what was it?
// result inactive

// query Assay outcome for O=c1[nH]nc(-c2ccccc2)c2sc(NC(=S)Nc3ccc(Cl)cc3)nc12 : what was it?
// result inactive

// query Assay outcome for CCSc1ccc(C2C(Br)C(=O)N2c2cc(OC)c(OC)c(OC)c2)cc1 (stereo not drawn) : what was it?
// result inactive

// query Assay outcome for O=C1CC(c2ccc(O)c(O)c2)Oc2cc(O)c([C@@H]3O[C@H](CO)[C@@H](O)[C@H](O)[C@H]3O)c(O)c21 (stereo partly drawn) : what was it?
// result inactive

// query Assay outcome for Nc1ccccc1NC(=O)c1ccc(CSc2nc(N3CCOCC3)c3cccn3n2)cc1 : what was it?
// result active

// query Assay outcome for C=C1C(=O)O[C@H]2[C@H]1CC/C(COC(=O)CCCCCCCCC(=O)OC/C1=C/CC[C@@]3(C)O[C@H]3[C@H]3OC(=O)C(=C)[C@@H]3CC1)=C\CC[C@@]1(C)O[C@@H]21 : what was it?
// result active

// query Assay outcome for O=C(Nc1nc2ccc(C(F)(F)F)cc2s1)c1cc(Cl)ccc1O : what was it?
// result inactive

// query Assay outcome for Nn1c(SCC(=O)Nc2ccc(Cl)cc2)nnc1-c1cc(F)c(Cl)cc1Cl : what was it?
// result inactive

// query Assay outcome for O=C1CC23OC4ON=C(Br)C4C2C(O)c2ccccc2N13 (stereo not drawn) : what was it?
// result inactive

// query Assay outcome for CCCCCCC/C=C/[C@H]1O[C@]23C(=O)C[C@@]4(C[C@@H](OC5OC(CO)C(O)C(O)C5O)C[C@@H]4[C@H]2C=C1C)OC3=O (stereo partly drawn) : what was it?
// result active

// query Assay outcome for COc1cc(N=Nc2cc(S(=O)(=O)O)cc3cc(S(=O)(=O)O)cc(O)c23)c(C)cc1N=Nc1c(S(=O)(=O)O)cc2cc(Nc3ccccc3)ccc2c1O : what was it?
// result inactive

// query Assay outcome for N#Cc1ccc(N2Cc3cc(Cl)ccc3OC3=C2C(=O)N(Cc2ccccc2)C3=O)cc1 : what was it?
// result active

// query Assay outcome for CCOC(=O)c1c(C)nc2c(c1N)/C(=C/c1cccs1)C(=O)N2c1ccc(OC)cc1 : what was it?
// result inactive

// query Assay outcome for CC1CCCN(CCCCCOc2ccc3oc4ccccc4c(=O)c3c2)C1 (stereo not drawn) : what was it?
// result inactive

// query Assay outcome for COc1ccc(-c2cs/c(=N\N=C\c3ccc(O)cc3O)n2/N=C/c2ccc(O)cc2O)cc1 : what was it?
// result active

// query Assay outcome for COc1cc(C2CC(c3ccc(Nc4nc(NCCO)nc(NCCO)n4)cc3)=NN2c2cc(Cl)cc(Cl)c2)cc(OC)c1OC (stereo not drawn) : what was it?
// result active

// query Assay outcome for N#Cc1ccc(C2C3=C(CCCC3=O)OC3=C2C(=O)c2ccccc2C3=O)cc1 (stereo not drawn) : what was it?
// result inactive

// query Assay outcome for CC(=O)Oc1ccc(O)cc1 : what was it?
// result inactive

// query Assay outcome for COCCOCCOCc1n(Cc2ccc3ccccc3n2)c2ccccc2[n+]1Cc1ccc2ccccc2n1 : what was it?
// result inactive

// query Assay outcome for CN1C(=O)c2cc(Cl)nc3c(NC(=O)c4cccc(Cl)c4)c(Cl)c(NC(=O)c4cccc(Cl)c4)c1c23 : what was it?
// result active

// query Assay outcome for CC(C)C1=C[C@@]23CC[C@H]4[C@](C)(COCCC#N)CCC[C@]4(C)[C@H]2C[C@@H]1[C@@H]1[C@H]3[C@@H](OCCC#N)CC[C@@H]1OCCC#N : what was it?
// result inactive

// query Assay outcome for COc1ccc(Cc2nc(C#N)c(N3CCN(c4ccc(F)cc4)CC3)o2)cc1 : what was it?
// result inactive

// query Assay outcome for CC(=O)OCC1OC(OC2C(COC(C)=O)OC(OCCC[S-])C(OC(C)=O)C2OC(C)=O)C(OC(C)=O)C(OC(C)=O)C1OC(C)=O.[Au+].c1ccc(CN2[CH-]N(Cc3ccccc3)C(c3ccccc3)=C2c2ccccc2)cc1 (stereo not drawn) : what was it?
// result inactive
